Each entry below lists one item and its recorded IC50 value.
# ASSAY TARGET: HIV-1 RT K103N/Y181C (Human immunodeficiency virus type 1 group M subtype B, UniProt P03366, K702N/Y780C)
# Construct: mutations that occur in the reverse transcriptase segment of the pol gene
# PROCEDURE TEXT: Reverse Transcriptase (RT) assay, double mutant K103N/Y181C
# Format: biochemical
PROPERTY NAME: IC50

- CCN1c2ncc(CCOc3ccc(C(=O)O)c4c3CCCC4)cc2-c2ncc(C)n2-c2cccnc21: > 100 nM
- CCN1c2ncc(CCOc3cccc4c3CNC(=O)N4)cc2-c2nccn2-c2cccnc21: < 50 nM
- CCN1c2ncc(CCOc3ccc(C(=O)O)c4ccccc34)cc2-c2ncc(C)n2-c2cccnc21: > 100 nM
- CCN1c2ncc(CCOc3cccc4c3CCS(=O)(=O)N4)cc2-c2ncc(C)n2-c2cccnc21: 50 to 100 nM

====

# IC50 per record follows
# ASSAY TARGET: HIV-1 RT K103N/Y181C (Human immunodeficiency virus type 1 group M subtype B, UniProt P03366, K702N/Y780C)
# Construct: mutations that occur in the reverse transcriptase segment of the pol gene
# PROCEDURE TEXT: Reverse Transcriptase (RT) assay, double mutant K103N/Y181C
# Format: biochemical
PROPERTY NAME: IC50

* CCN1c2ncc(CCOc3cccc4c3CNC4=O)cc2-c2ncc(C)n2-c2cccnc21 [Entry 103] | > 100 nM
* CCN1c2ncc(CCOc3ccc(C(=O)O)cc3C)cc2-c2ncc(C)n2-c2cccnc21 [Entry 118] | < 50 nM
* CCOC(=O)N1c2cccc(OCCc3cnc4c(c3)-c3nccn3-c3c(C)ccnc3N4CC)c2CS1(=O)=O [Entry 112] | < 50 nM
* CCN1c2ncc(CCOc3cccc4c3CNS4(=O)=O)cc2-c2ncc(C)n2-c2cccnc21 [Entry 105] | < 50 nM
* CCN1c2ncc(CCOc3cccc4c3CCNC4=O)cc2-c2ncc(C)n2-c2cccnc21 [Entry 110] | > 100 nM
* CCN1c2ncc(CCOc3ccc4c(c3)C(C)(C)NS4(=O)=O)cc2-c2nccn2-c2c(C)ccnc21 [Entry 107] | < 50 nM
* CCN1c2ncc(CCOc3cccc4c3CS(=O)(=O)N4)cc2-c2nccn2-c2c(C)ccnc21 [Entry 113] | 50 to 100 nM
* CCN1c2ncc(CCOc3cccc4c3CS(=O)(=O)N4CC(=O)OC(C)(C)C)cc2-c2nccn2-c2c(C)ccnc21 [Entry 114] | 50 to 100 nM

====

Listed molecules paired with reported pIC50
# ASSAY TARGET: HIV-1 RT K103N/Y181C (Human immunodeficiency virus type 1 group M subtype B, UniProt P03366, K702N/Y780C)
# Construct: mutations that occur in the reverse transcriptase segment of the pol gene
# PROCEDURE TEXT: Reverse Transcriptase (RT) assay, double mutant K103N/Y181C
# Type: biochemical
pIC50: −log10 of the molar value.
PROPERTY NAME: pIC50

• CCN1c2ncc(CCOc3cccc4c3CN(C)C(=O)N4C)cc2-c2ncc(C)n2-c2cccnc21 = < 7.00
• CCN1c2ncc(CCOc3cccc4c3CS(=O)(=O)N4CC(=O)O)cc2-c2nccn2-c2c(C)ccnc21 = 7.00 to 7.30
• CCN1c2ncc(CCOc3cccc4c3C=CS(=O)(=O)N4C)cc2-c2ncc(C)n2-c2cccnc21 = > 7.30
• CCN1c2ncc(CCOc3ccc(-c4ccc(CC(=O)O)cc4)cc3C)cc2-c2ncc(C)n2-c2cccnc21 = 7.00 to 7.30
• CCN1c2ncc(CCOc3cccc4c3CNC(=O)N4)cc2-c2nc(C)cn2-c2cccnc21 = < 7.00
• CCN1c2ncc(CCOc3ccc(C(=O)O)cc3C)cc2-c2nccn2-c2cccnc21 = < 7.00
• CCN1c2ncc(CCOc3cccc4c3CNC(=O)N4)cc2-c2nccn2-c2c(C)ccnc21 = > 7.30
• CCN1c2ncc(CCOc3cccc4c3COC(=O)N4)cc2-c2ncc(C)n2-c2cccnc21 = < 7.00
